src = patent US12630511B2

- Assay system: EGFR L858R/T790M/C797S mutant enzyme (Homo sapiens, UniProt P00533, C797S/L858R/T790M)
- Sequence (P00533 25-1210 T790M/C797S/L858R): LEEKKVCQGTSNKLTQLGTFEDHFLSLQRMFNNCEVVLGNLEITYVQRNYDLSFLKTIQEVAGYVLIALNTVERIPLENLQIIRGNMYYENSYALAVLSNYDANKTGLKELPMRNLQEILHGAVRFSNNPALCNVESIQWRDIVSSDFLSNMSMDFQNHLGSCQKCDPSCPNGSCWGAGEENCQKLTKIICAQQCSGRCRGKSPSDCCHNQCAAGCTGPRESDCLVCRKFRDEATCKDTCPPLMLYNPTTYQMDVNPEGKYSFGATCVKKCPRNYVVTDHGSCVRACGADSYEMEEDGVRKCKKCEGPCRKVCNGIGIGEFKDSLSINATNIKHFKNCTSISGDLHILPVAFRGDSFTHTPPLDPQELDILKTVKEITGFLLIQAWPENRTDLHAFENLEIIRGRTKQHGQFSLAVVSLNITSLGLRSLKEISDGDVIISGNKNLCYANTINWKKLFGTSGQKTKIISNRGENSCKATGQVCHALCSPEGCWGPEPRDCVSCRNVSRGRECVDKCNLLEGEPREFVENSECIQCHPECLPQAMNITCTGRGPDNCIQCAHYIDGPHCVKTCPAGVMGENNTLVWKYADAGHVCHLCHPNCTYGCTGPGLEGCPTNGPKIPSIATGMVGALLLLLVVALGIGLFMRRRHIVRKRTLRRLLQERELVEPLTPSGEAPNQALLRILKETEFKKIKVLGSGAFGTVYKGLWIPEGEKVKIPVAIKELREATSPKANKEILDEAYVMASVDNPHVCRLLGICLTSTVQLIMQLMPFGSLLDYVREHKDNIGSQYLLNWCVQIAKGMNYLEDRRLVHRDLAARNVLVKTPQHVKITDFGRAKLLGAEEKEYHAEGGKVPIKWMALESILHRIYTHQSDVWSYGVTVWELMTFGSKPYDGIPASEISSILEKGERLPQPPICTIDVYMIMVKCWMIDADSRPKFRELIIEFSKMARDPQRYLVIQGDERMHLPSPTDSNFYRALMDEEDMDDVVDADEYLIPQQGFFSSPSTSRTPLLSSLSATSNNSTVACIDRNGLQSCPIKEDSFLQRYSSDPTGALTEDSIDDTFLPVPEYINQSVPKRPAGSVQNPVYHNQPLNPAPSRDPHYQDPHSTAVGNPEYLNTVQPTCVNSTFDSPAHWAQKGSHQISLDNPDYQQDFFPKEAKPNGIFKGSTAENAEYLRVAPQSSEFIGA
- Method: Inhibitory capacity against EGFR L858R/T790M/C797S mutant enzyme (Cisbio HTRF)
- Condition summary: HTRF, 1 mM ATP, 37° C. for 2 hours, 7 concentrations
Measurement type: IC50 (nM)

a. CN(C)C1CCN(c2ccc(-c3cccc(C(=O)N[C@@H](c4cc5ccccc5[nH]4)c4cc(F)ccc4O)c3)cc2)CC1
b. CN1CCC(N2CCN(c3ccc(-c4cccc(C(=O)N[C@@H](c5cc6ccccc6[nH]5)c5cc(F)ccc5O)c4)cc3)CC2)CC1
Input line: Please indicate which has the smaller reported IC50: a , or b . Refer to your chosen entry by its label in the reply.
Output line: b
